Organism: Rattus norvegicus
Method notes: Open TG-GATES - Regimen: Single
Format: toxicity, organism-based, Sprague-Dawley
Parameters: regimen Single, gender Male, age 6 weeks
Recorded conditions: in vivo, po, 1000 mg/kg, 24 h, tissue Plasma, route gavage, dose level High
Reported endpoint: AST

Observe how each entry below is paired with its result.
molecule="CCc1cc(C(N)=S)ccn1 [ETHIONAMIDE]" measurement="68.6 IU/L"
molecule=C[C@H](CS)C(=O)N1CCC[C@H]1C(=O)O measurement="66.4 IU/L"
molecule=Clc1ccccc1CN1CCc2sccc2C1 measurement="64.6 IU/L"

Here's the next entry for you.
Prompt: Using the record for O=C(O)c1cc(/N=N/c2ccc(S(=O)(=O)Nc3ccccn3)cc2)ccc1O , report its AST.
Completion: 69.8 IU/L

* * *

Species on record: Rattus norvegicus
Method notes: Open TG-GATES - Regimen: Single
Format: toxicity, organism-based, Sprague-Dawley
Design: regimen Single, gender Male, age 6 weeks
Recorded conditions: in vivo, po, 100 mg/kg, 3 h, tissue Plasma, route gavage, dose level Low
Reported endpoint: PL (mg/dL)
Numbers only; they are read as mg/dL.

Prompt: Which measured PL value corresponds to O=C(O)c1cc(/N=N/c2ccc(S(=O)(=O)Nc3ccccn3)cc2)ccc1O ?
Completion: 148

Prompt: Fill in the blank: the reported PL of C[C@H](CS)C(=O)N1CCC[C@H]1C(=O)O is ____.
Completion: 131.8

Prompt: What value of PL has been reported for the following molecule? CCc1cc(C(N)=S)ccn1 [ETHIONAMIDE]
Completion: 128.4

Prompt: Need PL, item Clc1ccccc1CN1CCc2sccc2C1
Completion: 132.2

Prompt: Can you look up the measured PL of O=C(O)c1cn(C2CC2)c2cc(N3CCNCC3)c(F)cc2c1=O for me?
Completion: 144.4

* * *

Species on record: Rattus norvegicus
Method notes: Open TG-GATES - Regimen: Single
Assay type: toxicity, organism-based, Sprague-Dawley
Design: regimen Single, gender Male, age 6 weeks
Recorded conditions: in vivo, po, 0 mg/kg, 24 h, tissue Plasma, route gavage, dose level Control
# LDH listing for each entry below

Observe how each entry below is paired with its result.
compound="NC(=O)N/N=C/c1ccc([N+](=O)[O-])o1 [NITROFURAZONE]" reported_endpoint=LDH measurement="61.2 IU/L"
compound="CCc1cc(C(N)=S)ccn1 [ETHIONAMIDE]" reported_endpoint=LDH measurement="77.8 IU/L"
compound="CC(=O)Oc1ccccc1C(=O)O [ASPIRIN]" reported_endpoint=LDH measurement="207.2 IU/L"
compound="O=C(O)c1cn(C2CC2)c2cc(N3CCNCC3)c(F)cc2c1=O [CIPROFLOXACIN]" reported_endpoint=LDH measurement="96.8 IU/L"
compound="CN(C)CCC=C1c2ccccc2CCc2ccccc21 [AMITRIPTYLINE]" reported_endpoint=LDH measurement="90.2 IU/L"

Prompt: // returns reported LDH for input Clc1ccccc1CN1CCc2sccc2C1 [TICLOPIDINE]
Completion: 142.2 IU/L

Prompt: # input compound: O=C(O)c1cc(/N=N/c2ccc(S(=O)(=O)Nc3ccccn3)cc2)ccc1O [SULFASALAZINE] ; wanted: its LDH
Completion: 214.4 IU/L

Prompt: Given the entry CSc1ccc2c(c1)N(CCC1CCCCN1C)c1ccccc1S2 (stereo unspecified) [THIORIDAZINE] , report its measured LDH.
Completion: 73 IU/L

Prompt: Please look up its LDH: Cn1c(=O)c2[nH]cnc2n(C)c1=O.O [THEOPHYLLINE]
Completion: 221 IU/L

Prompt: Recorded LDH of COc1ccc(Cc2nccc3cc(OC)c(OC)cc23)cc1OC [PAPAVERINE] , please.
Completion: 179.4 IU/L

Prompt: Bench note: what LDH did NC(=O)N1c2ccccc2C=Cc2ccccc21 [CARBAMAZEPINE] show?
Completion: 199 IU/L
